Here, each record is paired with measured koff data.
Biological target: T1, insulin (UniProt P01308 25-54; P01308 90-110, limits assumed)
T1 construct: Mature insulin has two chains (A and B) from one precursor; also called b-insulin
T1 sequence (P01308 25-54 limits assumed, form in doubt, chain 1 of 2): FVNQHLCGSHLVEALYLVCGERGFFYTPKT
T1 sequence (P01308 90-110 limits assumed, form in doubt, chain 2 of 2): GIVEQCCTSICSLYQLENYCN
Test: SPR, Biacore T200; target immobilized on CM5, His6-tagged Y variant injected; 1:1 Langmuir

# Binder, koff [s⁻¹]
data = [
    ("Y00345 (designed binder, From library Ylib002Naive.I) MGSSHHHHHHGSSLAEAKEAAIAELDSKGVGAYQIKFIQVAKTVEAVQAIKQAILADLPA", 0.017),
    ("Y00356a (designed binder, From library Ylib002Naive.I; if it is only 46 residues long, an A must be added at the C-terminus) MGSSHHHHHHGSSLAEAKEAAIAELDSKGVGAKYIKMIQHAHYVEVVQWLKQAILAHLPA", 0.0061),
    ("Y02709 (designed binder, Y00358 with I9L) MGSSHHHHHHGSSLAEAKEAALAELDSKGVGAAKIKWIQDAKSVETVQFLKQAILAELPA", 0.01),
    ("Y00304 (designed binder, From library Ylib002Naive.I) MGSSHHHHHHGSSLAEAKEAAIAELDSKGVGAYQIKFIQVAHDVEEVQILKQAILADLPA", 0.0011),
    ("Y02714 (designed binder, Y00310 with Q26E) MGSSHHHHHHGSSLAEAKEAAIAELDSKGVGAYQIKFIEIAHTVEEVQLMKQAILADLPA", 0.16),
    ("Y02717 (designed binder, Y00310 with K15Y + Q26E) MGSSHHHHHHGSSLAEAKEAAIAELDSYGVGAYQIKFIEIAHTVEEVQLMKQAILADLPA", 0.02),
    ("Y00330 (designed binder, From library Ylib002Naive.I) MGSSHHHHHHGSSLAEAKEAAIAELDSKGVGAKYIKMIQMAKHVETVQYMKQAILASLPA", 0.0037),
    ("Y00299 (designed binder, From library Ylib002Naive.I) MGSSHHHHHHGSSLAEAKEAAIAELDSKGVGAYQIKFIQVAKTVEQVQILKQAILADLPA", 0.002),
    ("Y02715 (designed binder, Y00358 with K15Y + Q26E) MGSSHHHHHHGSSLAEAKEAAIAELDSYGVGAAKIKWIEDAKSVETVQFLKQAILAELPA", 0.0019),
    ("Y02711 (designed binder, Y00358 with Q26E) MGSSHHHHHHGSSLAEAKEAAIAELDSKGVGAAKIKWIEDAKSVETVQFLKQAILAELPA", 0.008),
    ("Y02713 (designed binder, Y00310 with K15Y) MGSSHHHHHHGSSLAEAKEAAIAELDSYGVGAYQIKFIQIAHTVEEVQLMKQAILADLPA", 0.014),
]
